Origin of measurements: patent US6518339B1

result_type: melting point

[
  {
    "molecule": "NNC(=O)CCCCC(=O)NN [Example 2, Adipic dihydrazide]",
    "melting point": "182.5 to 185.5 °C"
  },
  {
    "molecule": "NNC(=O)CCCCCCC(=O)NN [Example 6, Suberic dihydrazide]",
    "melting point": "186.9 to 189.1 °C"
  },
  {
    "molecule": "NNC(=O)CCCC(=O)NN [Example 4, Glutaric dihydrazide]",
    "melting point": "176.3 to 178.6 °C"
  }
]

Recorded melting point for NNC(=O)CCCCCC(=O)NN [Example 5, Pimelic dihydrazide] , please?
183.2 to 185 °C
